assay_protocol: Stability of peptides in simulated intestinal fluid (pH 7.5)
Type: in vitro ADME
conditions_used: simulated intestinal fluid, 24 h, 2 μM, pH 7.5
Where a SMILES comes first, the peptide text is derived from it. [ ]: non-standard residue; d: D form. ξ: configuration not given here. Arg(NO2) = N=C(NCCC[C@H](N)C(=O)O)N[N+](=O)[O-]; ξαMePhe(2,6-F2) = CC(N)(Cc1c(F)cccc1F)C(=O)O; ξαMePhe(2-F) = CC(N)(Cc1ccccc1F)C(=O)O; hArg = N=C(N)NCCCC[C@H](N)C(=O)O; Nle = CCCC[C@H](N)C(=O)O; Ac5c = NC1(C(=O)O)CCCC1; Aib = CC(C)(N)C(=O)O
measured_parameter: % degradation of peptides in 24 h when incubated with simulated intestinal fluid (%)
Report the value in % with no unit label.

The reported value for CCCC[C@H](NC(=O)C(C)(Cc1c(F)cccc1F)NC(=O)[C@H](CCC(N)=O)NC(=O)[C@@H](NC(=O)[C@H](CCC(=O)O)NC(=O)C(C)(C)NC(=O)[C@@H](NC(=O)C1(N)CCCC1)C(C)C)[C@@H](C)CC)C(=O)N[C@@H](Cc1c[nH]cn1)C(=O)N[C@@H](CCC(N)=O)C(=O)N[C@@H](CCCCNC(=N)N)C(=O)NC(C)(C)C(=O)N[C@@H](CCCNC(=N)N[N+](=O)[O-])C(=O)NC(C)(Cc1ccccc1F)C(N)=O (stereo partly shown) [Seq. ID. 260] (H-[Ac5c]V[Aib]EIQ[ξαMePhe(2,6-F2)][Nle]HQ[hArg][Aib][Arg(NO2)][ξαMePhe(2-F)]-NH2) in terms of % degradation of peptides in 24 h when incubated with simulated intestinal fluid is 41
